- Tested on: Human adrenergic α1B receptor (Homo sapiens, UniProt P35368)
- Assay remarks: Radioligand binding, adrenergic α1B (Protocol Group B)
- Parameters: purchased Milipore (Millipore)
- Cond: 0.1 μM compound; Protocol Group B; 0.1 µM
Reported property: Percentage inhibition of ligand binding, Adrenergic α1B (0.1 μM) (%)
Write it as a number; the unit % goes unstated.

IN: Percentage inhibition of ligand binding, Adrenergic α1B (0.1 μM) for CC(O)(Cn1c2c(c3cc(Cl)cc(F)c31)CN1CCCC1C2)c1cccnc1 (single isomer, unassigned) [63d] ?
OUT: −5

IN: Need Percentage inhibition of ligand binding, Adrenergic α1B (0.1 μM) of CC(O)(Cn1c2c(c3cc(C(F)(F)F)ccc31)C1CCCN1CC2)c1cccnc1 (single isomer, unassigned) [64b] , thanks.
OUT: 4

IN: Return reported Percentage inhibition of ligand binding, Adrenergic α1B (0.1 μM); argument: Cc1ccc2c(c1)c1c(n2CC(C)(O)c2cncc(F)c2)CCN(C)C1 (single isomer, unassigned) [46b]
OUT: 0

IN: Give its Percentage inhibition of ligand binding, Adrenergic α1B (0.1 μM) value. Item: Cc1cc(F)c2c(c1)c1c(n2CC(C)(O)c2ccncc2)CCN2CCCC12 (single isomer, unassigned) [81b]
OUT: 49

IN: Need Percentage inhibition of ligand binding, Adrenergic α1B (0.1 μM), item CC(O)(Cn1c2c(c3cc(Cl)cc(F)c31)C1CCCN1CC2)c1cccnc1 (single isomer, unassigned) [53d]
OUT: −16

New cases:
IN: Look at this molecule and give its reported Percentage inhibition of ligand binding, Adrenergic α1B (0.1 μM). Cc1cc(F)c2c(c1)c1c(n2CC(C)(O)c2cccnc2)CCN2CCCC12 (stereo not drawn) [Compound No. 79a]
OUT: 47

IN: # Percentage inhibition of ligand binding, Adrenergic α1B (0.1 μM) lookup, item Cc1ccc2c(c1)c1c(n2CC(C)(O)c2cccnc2)CC2CCC1N2C (single isomer, unassigned) [101c]
OUT: 12

IN: I would be grateful if you could share the reported Percentage inhibition of ligand binding, Adrenergic α1B (0.1 μM) for Cc1ccc2c(c1)c1c(n2CC(O)c2ccncc2)CNC2CCCC12 (single isomer, unassigned) [34d] .
OUT: 6

IN: Entry Cc1ccc2c(c1F)c1c(n2CC(C)(O)c2cccnc2)CCN2CCCC12 (single isomer, unassigned) [87c] has what Percentage inhibition of ligand binding, Adrenergic α1B (0.1 μM)?
OUT: 62

###

inhibition at 0.1 µM by entry:
- Tested on: UniProt:P08913
- Sequence (P08913 whole entry): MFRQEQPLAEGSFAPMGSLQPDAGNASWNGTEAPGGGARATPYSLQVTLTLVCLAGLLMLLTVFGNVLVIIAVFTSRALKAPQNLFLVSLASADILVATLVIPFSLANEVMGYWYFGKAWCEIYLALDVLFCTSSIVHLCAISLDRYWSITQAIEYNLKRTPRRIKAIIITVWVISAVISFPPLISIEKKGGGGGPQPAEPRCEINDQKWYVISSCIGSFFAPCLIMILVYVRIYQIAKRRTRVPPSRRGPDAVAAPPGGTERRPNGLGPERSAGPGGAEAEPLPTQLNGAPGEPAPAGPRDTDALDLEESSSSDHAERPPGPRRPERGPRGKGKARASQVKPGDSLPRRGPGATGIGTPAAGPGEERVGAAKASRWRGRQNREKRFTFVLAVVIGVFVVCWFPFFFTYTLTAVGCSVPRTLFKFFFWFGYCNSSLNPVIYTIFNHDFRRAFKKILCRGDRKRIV
- Assay remarks: β-Arrestin GPCR functional assay, adrenergic α2A (Protocol B)
- Type: cell-based
- Cond: 0.1 μM compound; nor-epinephrine at EC80 (270 nM); read-out: Percentage inhibition, Adrenergic α2A
Express the result in % but write the number alone.

IN: Reported inhibition at 0.1 µM, molecule OC(Cn1c2c(c3cc(F)ccc31)C1CCCN1CC2)c1ccncc1 (single isomer, unassigned) [18b] : ____
OUT: 14

IN: Which inhibition at 0.1 µM reading was recorded for the molecule Cc1cc(C)c2c(c1)c1c(n2CC(C)(O)c2ccncc2)CCN2CCCC12 (single isomer, unassigned) [19a] ?
OUT: 13

IN: If you can, please state the reported inhibition at 0.1 µM value of Cc1ccc2c(c1)c1c(n2CC(C)(O)c2ccncc2)CCN2CCCC12 (single isomer, unassigned) [13a] .
OUT: 14

More entries:
IN: What value of inhibition at 0.1 µM has been recorded for this entry: Cc1ccc2c(c1)c1c(n2CC(O)c2ccncc2)CC[N+]2([O-])CCCC12 (stereo not shown)
OUT: 1

###

Examples of compounds with documented Ki follow.
Protein target, amino acids: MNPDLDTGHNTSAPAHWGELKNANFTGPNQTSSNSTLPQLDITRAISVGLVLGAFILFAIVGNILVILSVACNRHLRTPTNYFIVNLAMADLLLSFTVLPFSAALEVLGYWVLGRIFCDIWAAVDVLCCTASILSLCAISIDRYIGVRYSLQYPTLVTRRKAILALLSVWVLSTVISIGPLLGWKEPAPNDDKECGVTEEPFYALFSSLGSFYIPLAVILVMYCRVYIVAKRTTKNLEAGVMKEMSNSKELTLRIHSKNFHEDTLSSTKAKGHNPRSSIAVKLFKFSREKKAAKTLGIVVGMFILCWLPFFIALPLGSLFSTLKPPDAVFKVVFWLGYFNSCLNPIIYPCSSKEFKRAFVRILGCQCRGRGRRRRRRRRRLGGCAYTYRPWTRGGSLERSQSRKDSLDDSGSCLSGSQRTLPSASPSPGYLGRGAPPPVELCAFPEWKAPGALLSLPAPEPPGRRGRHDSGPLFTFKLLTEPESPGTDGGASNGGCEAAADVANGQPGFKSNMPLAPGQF
Dear colleague, please return just the value in nM, with no unit written.

IN: So what's the measured Ki for this one? Cc1cc(C)c2c(c1)c1c(n2CC(C)(O)c2ccncc2)CCN2CCCC12 (single isomer, unassigned) [19a]
OUT: 7.5

IN: For Cc1cc2c3c(n(CC(C)(O)c4ccncc4)c2cc1Cl)CCN1CCCC31 (single isomer, unassigned) [50a] , what is its reported Ki?
OUT: 3.7

IN: So what does the record say about Ki for CC(O)(Cn1c2c(c3cc(F)ccc31)C1CCCN1CC2)c1ccncc1 (single isomer, unassigned) [31b] ?
OUT: 134

Continuing:
IN: What value of measured Ki is listed for Cc1ccc2c(c1)c1c(n2CC(O)c2ccncc2F)CCN2CCCC12 (single isomer, unassigned) [14b] ?
OUT: 4.5

IN: I have this compound here, CCOC(Cn1c2c(c3cc(C)ccc31)CN(C)CC2)c1ccncc1 (single isomer, unassigned) [43a] , and I need its recorded Ki.
OUT: 111

IN: Request the reported Ki associated with Cc1cc(F)cc2c3c(n(CC(O)c4ccncc4)c12)CCN1CCCC31 (single isomer, unassigned) [136a]
OUT: 14.7

IN: Give its Ki value. Item: Cc1ccc2c(c1)c1c(n2CC(C)(O)c2ccnc(F)c2)CCN2CCCC12 (single isomer, unassigned) [48b]
OUT: 25.9

###

Percentage inhibition of ligand binding, Adrenergic α2B (30 nM): recorded values
- Tested on: Human adrenergic α2B receptor (Homo sapiens, UniProt P18089)
- Sequence (P18089 whole entry): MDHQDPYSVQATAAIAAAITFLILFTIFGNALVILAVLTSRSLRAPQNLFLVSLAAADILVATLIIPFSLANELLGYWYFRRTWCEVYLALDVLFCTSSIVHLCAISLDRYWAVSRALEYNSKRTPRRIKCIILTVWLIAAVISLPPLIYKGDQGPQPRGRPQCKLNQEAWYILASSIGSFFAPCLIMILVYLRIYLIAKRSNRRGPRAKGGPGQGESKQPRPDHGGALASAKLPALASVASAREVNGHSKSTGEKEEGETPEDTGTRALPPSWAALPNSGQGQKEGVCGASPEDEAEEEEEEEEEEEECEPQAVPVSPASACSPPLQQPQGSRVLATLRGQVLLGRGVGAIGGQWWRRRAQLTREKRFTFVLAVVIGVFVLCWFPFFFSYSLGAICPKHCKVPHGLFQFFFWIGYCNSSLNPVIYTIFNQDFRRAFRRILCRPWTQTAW
- Assay remarks: Radioligand binding, adrenergic α2B (Protocol Group B)
- Set-up: purchased Milipore (Millipore)
- Cond: 30 nM compound; Protocol Group B; 0.03 µM
- Protocol: To evaluate the activity of compounds in radioligand binding assays, Human adrenergic α2B receptor obtained from recombinant cell membrane from Milipore. Binding experiments were carried out in Tris-HCl buffer (50 mM Tris-HCl buffer, pH 7.4, 5 mM Mgcl2, 1 mM Cacl2, 0.2% BSA) as recommended by Milipore. […] Non-specific binding was estimated in the presence of 10 μM Rauwolscine. […] Compounds were screened at various concentrations, using 1% DMSO as vehicle. […]
Provide the reading as a plain figure in %.

See these solved cases before continuing.
IN: Under Human adrenergic α2B receptor (Homo sapiens, UniProt P18089): Percentage inhibition of ligand binding, Adrenergic α2B (30 nM) value of Cc1ccc2c(c1)c1c(n2CC(C)(O)c2cccnc2)CC2CCCN2C1 (stereo not shown) [38d] ?
OUT: 14

IN: Find Percentage inhibition of ligand binding, Adrenergic α2B (30 nM) (Human adrenergic α2B receptor (Homo sapiens, UniProt P18089)) for the entry OC(Cn1c2c(c3cc(Cl)ccc31)C1CCCN1CC2)c1ccncc1 (single isomer, unassigned) [143d]
OUT: 4

IN: Human adrenergic α2B receptor (Homo sapiens, UniProt P18089) / Percentage inhibition of ligand binding, Adrenergic α2B (30 nM) / OC(Cn1c2c(c3cc(Cl)ccc31)C1CCCN1CC2)c1ccncc1 (single isomer, unassigned) [143b] : value?
OUT: 100

Continuing:
IN: Provide the documented Percentage inhibition of ligand binding, Adrenergic α2B (30 nM) with Human adrenergic α2B receptor (Homo sapiens, UniProt P18089) as the system for OC(Cn1c2c(c3cc(F)cc(F)c31)C1CCCN1CC2)c1ccncc1 (single isomer, unassigned) [144a]
OUT: 73

###

- Tested on: Human adrenergic α2B receptor (Homo sapiens)
- Assay remarks: Radioligand binding, adrenergic α2B (Protocol Group B)
- Parameters: purchased Milipore (Millipore)
- Cond: 30 nM compound; Protocol Group B; read-out: Percentage inhibition of ligand binding, Adrenergic α2B (30 nM)
// reported inhibition at 0.03 µM for each item listed

Look over these answered cases.
IN: inhibition at 0.03 µM for Cc1cc(C)c2c(c1)c1c(n2CC(C)(O)c2ccncc2)CCN2CCCC12 (single isomer, unassigned) [19a] ?
OUT: 99%

IN: Can you look up the measured inhibition at 0.03 µM of Cc1ccc2c(c1)c1c(n2CC(O)c2cccnc2)C(O)CN(C)C1 (stereo not shown) [compound 24] for me?
OUT: 0%

IN: Sample Cc1ccc2c(c1)c1c(n2CC(C)(O)c2ccncc2)CC2CCCN2C1 (single isomer, unassigned) [37a] — what was its inhibition at 0.03 µM?
OUT: 50%

Proceeding to the next molecule to report its inhibition at 0.03 µM.
IN: Find the recorded inhibition at 0.03 µM belonging to CC(O)(Cn1c2c(c3cc(Cl)cc(F)c31)CN1CCCC1C2)c1ccncc1 (single isomer, unassigned) [86a] and report it.
OUT: 23%
